System: Staphylococcus aureus 0119
Assay: MIC, Staphylococcus aureus 0119
Format: cell-based
Conditions: Staphylococcus aureus 0119; macrolide-resistant A group strain, clinical isolate; read-out: MIC
readout_kind: MIC

molecule	measured_value
CCC1OC(=O)CC(O)C(C)C(OC2OC(C)C(O)C(N(C)C)C2O)C(C)CC(C)C(=O)C=CC(C)=CC1COC1OC(C)CC(OC)C1OC (stereo not shown) [Compound [1] R1 = OH, 19-deformyl-4"-deoxy-desmycosin]	12.5 µg/mL
CCC1OC(=O)CC(O)C(C)C(OC2OC(C)C(O)C(N(C)C)C2O)C(CC=O)CC(C)C(=O)/C=C/C(C)=C/C1COC1OC(C)C(O)C(OC)C1OC (stereo not shown) [descomycin, 4'-demycarosyl tylosin]	> 100 µg/mL
CO[C@@H]1[C@@H](O[C@@H]2O[C@H](C)[C@@H](O[C@H]3C[C@@](C)(O)[C@@H](OC(=O)CC(C)C)[C@H](C)O3)[C@H](N(C)C)[C@H]2O)[C@@H](CC=O)C[C@@H](C)[C@@H](O)/C=C/C=C/C[C@@H](C)OC(=O)C[C@H]1OC(C)=O [josamycin]	> 100 µg/mL
CCC1OC(=O)CC(O)C(C)C(OC2OC(C)CC(N(C)C)C2O)C(C)CC(C)C(=O)C=CC(C)=CC1COC1OC(C)C(O)C(OC)C1OC (stereo not shown) [Compound [1] R1 = H, 19-deformyl-4'-deoxy-desmycosin]	> 100 µg/mL
